biological target: Kv7.2 (Homo sapiens, UniProt O43526); construct: expressed in transfected cells; assay: Activation of Kv7.2 (in vitro assay, concentration response curve); format: cell-based; settings: Kv7.2 activation max %
assayReadout: Emax (%)

The following compounds have reported results that may help.
> print(dat)
                                   compound  assayreadout  numericresult
1  CC1(C)CC[C@H](O)[C@@H](NC(=O)NCc2ccnc(OC(F)F)c2)C1 (racemic) [Example 101]          Emax             72
2  C[C@@H](F)COc1cc(CNC(=O)NC23CCC(F)(CC2)CC3)ccn1 [Example 151]          Emax             42
3  CC(Oc1cc(CNC(=O)N[C@H]2C[C@H](C(F)(F)F)C2)ccn1)C(F)(F)F (stereo partly drawn) [Example 221]          Emax             78

[a] O=C(NCc1ccnc(C(F)F)c1)N[C@H]1C[C@@H]2CC[C@H]1C2 (racemic) [Example 35]
[b] C[C@]1(NC(=O)NCc2ccnc(OC(F)F)c2)C[C@@H](C(F)(F)F)C1 [Example 194]
Param pair: a , b . Output: the one whose Emax is numerically greater. When you have decided, please share the label of that item.
a
(a: 67%, b: 40%)

[P] O=C(NCc1ccnc(OC(F)F)c1)Nc1cccc(OC(F)F)c1 [Example 262]
[Q] O=C(NCc1ccnc(OC(F)F)c1)N[C@H]1[C@@H]2CC(F)(F)C[C@@H]21 [Example 271]
I would appreciate it if you could say which entry, P or Q , has the lower Emax value. When you have decided, please share the label of that item.
Q

[1] O=C(NCc1ccnc(OC2CC(F)(F)C2)c1)N[C@H]1C[C@H](C(F)(F)F)C1 [Example 209]
[2] O=C(NCc1ccnc(OC(F)F)c1)N[C@@H]1CC[C@H](C(F)F)C1 (racemic) [Example 193]
Param pair: 1 , 2 . Output: the one whose Emax is numerically greater. When you have decided, please share the label of that item.
1
(1: 71%, 2: 48%)

FYI, the data here is from patent US20250074901A1.
